Just for reference, ChEMBL document CHEMBL2163241 is where these values come from.

- ASSAY TEXT: Inhibition of chymotrypsin at 25 uM assessed as Kinact/Ki ratio incubated for 15 mins by spectrofluorometry
PROPERTY LABEL: Ratio (M⁻¹ s⁻¹)
Note: unit M⁻¹ s⁻¹ is implicit; provide only the numeric part.

COMPOUND: CSc1ccc(OP(=O)(Oc2ccc(SC)cc2)C(NC(=O)[C@@H]2CCCN2C(=O)[C@H](C)NC(=O)OCc2ccccc2)C(C)C)cc1 (mixture of isomers)
PROPERTY LABEL: Ratio
REPORTED VALUE: 1500

// next entry
The reported Ratio of the compound CC(C)C(NC(=O)[C@@H]1CCCN1C(=O)[C@@H](NC(=O)OC(C)(C)C)C(C)C)P(=O)(Oc1ccc(Cl)cc1)Oc1ccc(Cl)cc1 (mixture of isomers) was 250
